These measurements were taken from patent US8008525B2.

Quick reference for EC50 among some molecules
# assayed_system: UniProt Q5NUL3
# Sequence (Q5NUL3 whole entry): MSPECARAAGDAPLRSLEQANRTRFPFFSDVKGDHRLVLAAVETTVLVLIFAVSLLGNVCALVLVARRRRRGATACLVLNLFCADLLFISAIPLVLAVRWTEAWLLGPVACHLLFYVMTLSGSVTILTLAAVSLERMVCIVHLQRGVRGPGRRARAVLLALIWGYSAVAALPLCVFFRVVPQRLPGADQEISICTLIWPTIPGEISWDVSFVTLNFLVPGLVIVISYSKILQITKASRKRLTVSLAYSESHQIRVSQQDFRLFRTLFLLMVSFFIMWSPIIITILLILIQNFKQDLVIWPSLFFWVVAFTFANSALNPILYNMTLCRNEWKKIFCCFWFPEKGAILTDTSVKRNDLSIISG
# experiment_description: Test Example 1: regulating effect for 14273 receptor function (agonist effect), change in intracellular calcium level by FLIPR
# measurement_setup: CHO cell line (No. 104) expressing human 14273 receptor, change of fluorescent intensity after 35 seconds

Answered cases to consult:
INSERT INTO assay_data (molecule, result) VALUES
  ('O=C(O)CCc1ccc(OCc2cccc3c2OCO3)c(F)c1 [Example 102]', '≤ 10 µM'),
  ('Cc1cc(CCC(=O)O)ccc1OCc1cccc(Oc2ccccc2)c1 [Example 173]', '≤ 10 µM'),
  ('O=C(O)CCc1cc(F)c(OCc2ccccc2N2CCCCC2)c(F)c1 [Example 44]', '≤ 10 µM'),
  ('O=C(O)CCc1cc(F)c(OCc2cccc(Oc3nccs3)c2)c(F)c1 [Example 68]', '≤ 10 µM');

Then this molecule:
Q. Tell me EC50 reported for CCOc1cccc(COc2ccc(CCC(=O)O)cc2F)c1C [Example 208]
A. ≤ 10 µM
